# Assay Target: human MAO-B (Homo sapiens)
# Construct: expressed in transfected cells; host or cells: EBNA cells (transient transfection); cell membranes used
# Sequence (P27338 whole entry): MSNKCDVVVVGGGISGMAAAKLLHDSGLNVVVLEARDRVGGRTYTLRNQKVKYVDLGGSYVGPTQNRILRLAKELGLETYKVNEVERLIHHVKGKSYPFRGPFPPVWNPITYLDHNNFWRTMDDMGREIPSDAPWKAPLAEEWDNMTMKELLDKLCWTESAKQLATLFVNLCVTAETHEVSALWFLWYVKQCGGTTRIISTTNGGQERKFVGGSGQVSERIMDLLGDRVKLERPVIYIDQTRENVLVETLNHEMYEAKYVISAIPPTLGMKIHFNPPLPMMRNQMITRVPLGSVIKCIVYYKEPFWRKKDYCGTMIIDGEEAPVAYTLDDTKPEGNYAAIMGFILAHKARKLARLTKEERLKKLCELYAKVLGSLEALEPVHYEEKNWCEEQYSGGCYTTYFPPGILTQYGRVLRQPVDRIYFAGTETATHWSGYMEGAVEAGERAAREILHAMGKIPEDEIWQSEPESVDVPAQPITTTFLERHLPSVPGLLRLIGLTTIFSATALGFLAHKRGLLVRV
# Assay Notes: MAO-B enzymatic activity, spectrophotometric Amplex Red assay on membranes of transfected EBNA cells
# Assay type: biochemical
# Condition Description: membranes of EBNA cells transfected with human MAO-B; substrate tyramine; 30 min preincubation at 37° C., pH 7.4
This listing pairs compounds with measured log10 of IC50.
Measure: log10 of IC50 (log10 of the value in µM)

{"Molecule": "O=C1C[C@@H](c2c[nH]cn2)CN1c1ccc(OCc2cccc(F)c2)cc1", "log10 of IC50": -0.73}
{"Molecule": "CCOC(=O)c1nc([C@@H]2CC(=O)N(c3ccc(OCc4cccc(F)c4)cc3)C2)no1", "log10 of IC50": -1.37}
{"Molecule": "Cc1nc([C@@H]2CC(=O)N(c3ccc(OCc4cccc(F)c4)cc3)C2)cs1", "log10 of IC50": -0.41}
{"Molecule": "CC(=O)[C@@H]1CC(=O)N(c2ccc(OCc3cccc(F)c3)cc2)C1", "log10 of IC50": -1.96}
{"Molecule": "Cc1nc([C@@H]2CC(=O)N(c3ccc(OCc4cccc(F)c4)cc3)C2)no1", "log10 of IC50": -1.80}
{"Molecule": "N=C(NO)[C@@H]1CC(=O)N(c2ccc(OCc3cccc(F)c3)cc2)C1", "log10 of IC50": -1.74}
{"Molecule": "NC(=O)c1nc([C@@H]2CC(=O)N(c3ccc(OCc4cccc(F)c4)cc3)C2)no1", "log10 of IC50": -0.37}
{"Molecule": "CON(C)C(=O)[C@@H]1CC(=O)N(c2ccc(OCc3cccc(F)c3)cc2)C1", "log10 of IC50": -0.41}
